Assay: Hydrolysis of 3H-cocaine by Mab's (kinetic measurements)
Settings: Michaelis constant; pH that optimized kcat/ko: in general pH 7.8; 6A12 pH 7.4; 2A10 pH 7.0
In this section we review reported Km values for a set of molecules.
Measure: Km (µM)

Molecule | Measure | Meas value
Mab 2A10: anti-cocaine catalytic monoclonal antibody elicited by TSA 1 (antibody, mouse) heavy: ELVKPSQSLSLTCTVTGYSITSDYAWNWIRQFPGNRLEWMGYIRYSGITRYNPSLKSRISITRDTSKNKFFLQLNSVTTEDTATYYCVRIHYYGYGNWGQGTTLTGLP light: DMVMTQDELSNPVTSGESVSISCRSSKSLLYEDGKTYLNWFLQRPGQSPHLLIYLMSTRASGVSDRFSGSGSGTDFTLEISRVKAEDVGAYYCQQFVEYPFTFGSGTKLEIRR | Km | 3000
Mab 9A3: anti-cocaine catalytic monoclonal antibody elicited by TSA 1 (antibody, V domains shown, mouse) VH: SGPELVKPGASVKLSCKASGYPFTDYNMYWVKQSHGKSLEWIGYIDPSNGGIFYNQKFKGRATLTVDKSSNTAFMHLNSLTSEDSAVYYCARGGGLFAYWGQGTLVTVSE VL: TWPGETVTLTCRSSTGTITTSNYANWVQEKPDHLFSGLIGINNNRPPGVPARFSGSLIGDKAVLTITGAQTEDEAIYFCALWYSNHWVFGGGTKLTVLG | Km | 270

Sourced from patent US6913917B2
